assayedSystem: T1, Soluble CDCP1 extracellular domain (CDCP1-ECD) (SEQ ID NO:30) fused to Streptavidin Binding Protein (SBP) (human, UniProt Q9H5V8 30-663)
T1 construct: also called SBP-CDCP1-ECD
T1 sequence: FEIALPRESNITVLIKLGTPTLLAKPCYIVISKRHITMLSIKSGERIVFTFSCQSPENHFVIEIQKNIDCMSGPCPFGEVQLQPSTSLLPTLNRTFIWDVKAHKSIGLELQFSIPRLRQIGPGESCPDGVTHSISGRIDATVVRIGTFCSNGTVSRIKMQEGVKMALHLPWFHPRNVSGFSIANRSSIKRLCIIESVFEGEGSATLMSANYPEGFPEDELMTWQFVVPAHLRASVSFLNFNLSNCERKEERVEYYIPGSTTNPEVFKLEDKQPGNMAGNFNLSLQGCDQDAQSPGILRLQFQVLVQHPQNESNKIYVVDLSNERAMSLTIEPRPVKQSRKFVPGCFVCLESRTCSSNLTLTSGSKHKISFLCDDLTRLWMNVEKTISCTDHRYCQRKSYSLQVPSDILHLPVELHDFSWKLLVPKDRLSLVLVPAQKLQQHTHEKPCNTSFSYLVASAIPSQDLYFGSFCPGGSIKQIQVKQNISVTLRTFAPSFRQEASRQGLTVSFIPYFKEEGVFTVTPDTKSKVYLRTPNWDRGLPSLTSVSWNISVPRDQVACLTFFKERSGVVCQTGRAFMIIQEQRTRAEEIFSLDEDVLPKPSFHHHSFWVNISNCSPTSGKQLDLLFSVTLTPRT
assayOverview: ELISA on captured SBP-CDCP1-ECD, ratio relative to chimeric CUB4 (chHC4)
attributeMeasured: relative binding ratio

- binder: "hHC4-c / hLC4-K (antibody, V domains shown) VH: EVQLVESGGGLVQPGGSLRLSCAASGFTFNSYGMSWVRQAPGKGLEWVATISSGGSYTYYPDSVKGRFTISRDNAKNSLYLQMNSLRAEDTAVYYCARHPDYDGVWFAYWGQGTLVTVSS VL: EIVLTQSPATLSLSPGERATLSCRASSSVFYLHWYQQKPGQAPRLWIYDTSKLASGIPARFSGSGSGTDFTLTISSLEPEDFAVYYCQQWNSNPPTFGGGTKVEIK"
  valueObserved: 0.83
- binder: "hHC4-04 / hLC4-a (antibody, V domains shown) VH: EVQLLESGGGLVQPGGSLRLSCAASGFTFNSYGMSWVRQAPGKGLEWVSTISSGGSYTYYPDSVKGRFTISRDNSKNTLYLQMNSLRAEDTAVYYCARHPDYDGVWFAYWGQGTLVTVSS VL: EIVLTQSPATLSLSPGERATLSCSVSSSVFYVHWYQQKPGQAPRLLIYDTSKLASGIPARFSGSGSGTDFTLTISSLEPEDFAVYYCQQWNSNPPTFGGGTKVEIK"
  valueObserved: 0.39
- binder: "Humanized CUB4 Antibody No. 91 (antibody, IgG1, V domains shown, Only variable domains are tied to the antibody; Human constant region, preferably IgG1; also called hHC4-H / hLC-a) VH: EVQLVESGGGLVQPGGSLRLSCAASGFTFNSYGMSWVRQAPGKGLEWVATISSGGSYKYYVDSVKGRFTISRDNAKNSLYLQMNSLRAEDTAVYYCARHPDYDGVWFAYWGQGTLVTVSS VL: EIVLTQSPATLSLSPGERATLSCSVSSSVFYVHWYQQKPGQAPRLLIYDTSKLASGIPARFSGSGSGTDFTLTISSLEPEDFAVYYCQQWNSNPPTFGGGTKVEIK"
  valueObserved: 0.51
- binder: "hHC4-04 / chLC4 (antibody, V domains shown) VH: EVQLLESGGGLVQPGGSLRLSCAASGFTFNSYGMSWVRQAPGKGLEWVSTISSGGSYTYYPDSVKGRFTISRDNSKNTLYLQMNSLRAEDTAVYYCARHPDYDGVWFAYWGQGTLVTVSS VL: QIVLTQSPAIMSASPGEKVTMTCSVSSSVFYVHWYQQKSGTSPKRWIYDTSKLASGVPARFSGSGSGTSYSLTISSMEAEDAATYYCQQWNSNPPTFGGGTKLEIK"
  valueObserved: 0.71
- binder: "hHC4-03 / hLC4-M (antibody, V domains shown) VH: EVQLLESGGGLVQPGGSLRLSCAASGFTFNSYGMSWVRQAPGKGLEWVSAISSGGSYTYYPDSVKGRFTISRDNSKNTLYLQMNSLRAEDTAVYYCAKHPDYDGVWFAYWGQGTLVTVSS VL: EIVLTQSPATLSLSPGERATMSCGASSSVFYLHWYQQKPGLAPRLWIYDTSKLASGIPDRFSGSGSGTDFTLTISRLEPEDFAVYYCQQWNSNPPTFGGGTKVEIK"
  valueObserved: 0.14
- binder: "hHC4-04 / hLC4-L (antibody, V domains shown) VH: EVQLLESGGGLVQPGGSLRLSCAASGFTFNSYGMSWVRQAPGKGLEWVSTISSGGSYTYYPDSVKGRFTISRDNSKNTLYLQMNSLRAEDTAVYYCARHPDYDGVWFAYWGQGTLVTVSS VL: EIVLTQSPATLSLSPGERATMSCRASSSVFYLHWYQQKPGQAPRLWIYDTSKLASGIPARFSGSGSGTDFTLTISSLEPEDFAVYYCQQWNSNPPTFGGGTKVEIK"
  valueObserved: 0.68
- binder: "hHC4-04 / hLC4-e (antibody, V domains shown) VH: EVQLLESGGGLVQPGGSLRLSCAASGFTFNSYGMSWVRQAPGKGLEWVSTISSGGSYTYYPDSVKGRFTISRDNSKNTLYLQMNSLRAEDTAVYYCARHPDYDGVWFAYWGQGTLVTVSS VL: DIQMTQSPSSLSASVGDRVTITCSVSSSVFYVHWYQQKPGKAPKLLIYDTSKLASGVPSRFSGSGSGTDFTFTISSLQPEDIATYYCQQWNSNPPTFGGGTKVEIK"
  valueObserved: 0.2
- binder: "hHC4-I / hLC4-b (antibody, V domains shown) VH: EVQLLESGGGLVQPGGSLRLSCAASGFTFNSYAMSWVRQAPGKGLEWVSAISSGGSYTYYADSVKGRFTISRDNSKNTLYLQMNSLRAEDTAVYYCAKHPDYDGVWFAYWGQGTLVTVSS VL: EIVLTQSPATLSLSPGERATLSCSVSSSVFYVHWYQQKPGQAPRLLIYDTSKLASGIPARFSGSGSGTDYTLTISSLEPEDFAVYYCQQWNSNPPTFGGGTKVEIK"
  valueObserved: 0.07
